B1: SLC22A15 (parent)
chain: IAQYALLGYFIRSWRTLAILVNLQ

Variants of: B1
Assay: protein stability index of a GFP-peptide fusion (GPS, HEK-293T) (PSI 1-6); higher = more stable;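 also: lentivirally expressed fusions sorted by FACS into six bins by GFP to DsRed ratio, PSI derived from sequencing read proportions per bin multiplied by bin number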
Conditions: c terminus: a fixed tail appended
measureName: protein stability index

• IAQYALLGYFILSWRTLAILVNLQ = 2.94
• IAQYALLGYFIRSWMTLAILVNLQ = 2.18
• IAQYALLGYFIRKWRTLAILVNLQ = 1.4
• IAQYALLGYFIRSWRTKAILVNLQ = 2.4
• IAQYALLGYFERSWRTLAILVNLQ = 1.63
• IEQYALLGYFIRSWRTLAILVNLQ = 2.65
• IAQYALLGYFIRSWRVLAILVNLQ = 3.34
• IAQYALLGYFIRSWRTLAQLVNLQ = 3.02
• INQYALLGYFIRSWRTLAILVNLQ = 4.69
• IAQYALLGYFIRSWRTLAILVVLQ = 2.23
• IAQYALLGYFIRSWRTLAILRNLQ = 2.7
• IAQYALLGYFIRSVRTLAILVNLQ = 2.46
• IAQYALLGYFIRSWRTQAILVNLQ = 2.85
• IAQYALLGYFRRSWRTLAILVNLQ = 2.37
• IAQYALLGYFIRSWRTLAILTNLQ = 3.6
• IAQYAELGYFIRSWRTLAILVNLQ = 2.55
• IAQYALLGYKIRSWRTLAILVNLQ = 2.44
• IAQYALLGYFIRSWRTLAALVNLQ = 3.93
• IAQYALLGGFIRSWRTLAILVNLQ = 3.34
• IAQYALLFYFIRSWRTLAILVNLQ = 2.71
• IAQYALLGYFIRQWRTLAILVNLQ = 2.61
• IAQYALLGYFIRSWRALAILVNLQ = 3.28

Every entry's value here was drawn from the supplement of paper PMC10567573.
